The reported numbers originate from patent US11965039B2.

target: T1, Human C3 (Complement tech cat #A113c) (human, UniProt P01024 23-1663); assay: SPR (Biacore T200), human C3 immobilised, peptide injected, 1:1 fit
T1 construct: Purified protein immobilised by amine coupling in the SPR assay; in the haemolysis assay it is the C3 of diluted human serum; Native C3 consists of a beta and an alpha chain cut from one precursor; also called C3 protein
T1 sequence (P01024 23-1663 limits assumed): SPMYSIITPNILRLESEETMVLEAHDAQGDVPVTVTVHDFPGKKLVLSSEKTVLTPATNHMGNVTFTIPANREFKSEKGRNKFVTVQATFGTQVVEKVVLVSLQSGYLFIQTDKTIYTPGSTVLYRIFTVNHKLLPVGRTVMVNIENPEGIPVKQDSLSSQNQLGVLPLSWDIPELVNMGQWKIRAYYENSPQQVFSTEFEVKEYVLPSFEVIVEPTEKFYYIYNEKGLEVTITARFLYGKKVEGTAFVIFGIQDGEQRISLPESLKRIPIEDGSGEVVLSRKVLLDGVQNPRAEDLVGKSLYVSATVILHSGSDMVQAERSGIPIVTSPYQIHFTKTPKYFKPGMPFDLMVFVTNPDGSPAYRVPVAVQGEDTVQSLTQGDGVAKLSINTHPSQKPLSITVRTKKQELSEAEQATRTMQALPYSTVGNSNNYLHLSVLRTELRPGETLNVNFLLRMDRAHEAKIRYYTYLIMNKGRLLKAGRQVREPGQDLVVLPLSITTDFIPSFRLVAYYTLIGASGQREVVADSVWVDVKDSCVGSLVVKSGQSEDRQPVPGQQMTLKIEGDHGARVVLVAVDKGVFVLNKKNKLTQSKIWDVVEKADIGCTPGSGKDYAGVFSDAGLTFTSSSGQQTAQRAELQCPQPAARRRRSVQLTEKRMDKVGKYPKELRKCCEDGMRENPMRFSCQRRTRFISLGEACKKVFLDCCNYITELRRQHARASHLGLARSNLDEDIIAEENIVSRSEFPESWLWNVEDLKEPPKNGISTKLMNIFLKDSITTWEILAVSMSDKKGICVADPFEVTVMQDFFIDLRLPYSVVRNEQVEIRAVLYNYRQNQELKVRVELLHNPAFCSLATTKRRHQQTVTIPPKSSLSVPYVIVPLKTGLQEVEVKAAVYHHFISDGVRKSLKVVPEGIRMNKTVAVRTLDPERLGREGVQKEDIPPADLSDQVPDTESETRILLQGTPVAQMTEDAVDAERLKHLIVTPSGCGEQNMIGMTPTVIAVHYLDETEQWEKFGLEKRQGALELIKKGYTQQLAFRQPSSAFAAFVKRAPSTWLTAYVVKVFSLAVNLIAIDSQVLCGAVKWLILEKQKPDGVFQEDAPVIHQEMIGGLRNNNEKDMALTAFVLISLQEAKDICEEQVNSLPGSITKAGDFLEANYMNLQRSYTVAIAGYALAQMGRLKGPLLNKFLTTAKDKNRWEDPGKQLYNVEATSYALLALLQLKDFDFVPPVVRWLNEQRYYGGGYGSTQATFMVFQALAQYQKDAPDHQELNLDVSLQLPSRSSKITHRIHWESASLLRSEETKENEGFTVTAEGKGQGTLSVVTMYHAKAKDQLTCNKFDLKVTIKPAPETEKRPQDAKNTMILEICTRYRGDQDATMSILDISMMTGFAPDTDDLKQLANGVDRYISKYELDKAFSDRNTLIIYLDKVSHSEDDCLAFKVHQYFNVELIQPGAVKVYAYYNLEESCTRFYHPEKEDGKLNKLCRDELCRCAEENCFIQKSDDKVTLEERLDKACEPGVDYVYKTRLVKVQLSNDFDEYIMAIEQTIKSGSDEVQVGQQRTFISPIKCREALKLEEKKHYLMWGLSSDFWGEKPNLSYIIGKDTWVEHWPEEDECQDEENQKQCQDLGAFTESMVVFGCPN
Positions of bridges follow the written chain, without caps; N, C: chain ends. Non-standard residues stand in square brackets, D forms with d. Trp(1-Me) = Cn1cc(C[C@H](N)C(=O)O)c2ccccc21; AEEA = NCCOCCOCC(=O)O; Sar = CNCC(=O)O
I'd appreciate it if you could supply pKd values for the items below.
// pKd is dimensionless: -log10 of concentration (M)

Output measured pKd for this item: Ac-FCIWQDWGEHRCTGAE-NH2 (disulfide 2-12; SMILES CC[C@H](C)[C@@H]1NC(=O)[C@@H](NC(=O)[C@H](Cc2ccccc2)NC(C)=O)CSSC[C@@H](C(=O)N[C@H](C(=O)NCC(=O)N[C@@H](C)C(=O)N[C@@H](CCC(=O)O)C(N)=O)[C@@H](C)O)NC(=O)[C@H](CCCNC(=N)N)NC(=O)[C@H](Cc2c[nH]cn2)NC(=O)[C@H](CCC(=O)O)NC(=O)CNC(=O)[C@H](Cc2c[nH]c3ccccc23)NC(=O)[C@H](CC(=O)O)NC(=O)[C@H](CCC(N)=O)NC(=O)[C@H](Cc2c[nH]c3ccccc23)NC1=O) [Compound 43] 8.48

Specify measured pKd for Ac-FCI[Trp(1-Me)]QDWGEHRCTGAES-NH2 (disulfide 2-12; SMILES CC[C@H](C)[C@@H]1NC(=O)[C@@H](NC(=O)[C@H](Cc2ccccc2)NC(C)=O)CSSC[C@@H](C(=O)N[C@H](C(=O)NCC(=O)N[C@@H](C)C(=O)N[C@@H](CCC(=O)O)C(=O)N[C@@H](CO)C(N)=O)[C@@H](C)O)NC(=O)[C@H](CCCNC(=N)N)NC(=O)[C@H](Cc2c[nH]cn2)NC(=O)[C@H](CCC(=O)O)NC(=O)CNC(=O)[C@H](Cc2c[nH]c3ccccc23)NC(=O)[C@H](CC(=O)O)NC(=O)[C@H](CCC(N)=O)NC(=O)[C@H](Cc2cn(C)c3ccccc23)NC1=O) [Compound 61] . 9.48

Give pKd for Ac-EFCI[Trp(1-Me)]QDWGEHRCES-NH2 (disulfide 3-13; SMILES CC[C@H](C)[C@@H]1NC(=O)[C@@H](NC(=O)[C@H](Cc2ccccc2)NC(=O)[C@H](CCC(=O)O)NC(C)=O)CSSC[C@@H](C(=O)N[C@@H](CCC(=O)O)C(=O)N[C@@H](CO)C(N)=O)NC(=O)[C@H](CCCNC(=N)N)NC(=O)[C@H](Cc2c[nH]cn2)NC(=O)[C@H](CCC(=O)O)NC(=O)CNC(=O)[C@H](Cc2c[nH]c3ccccc23)NC(=O)[C@H](CC(=O)O)NC(=O)[C@H](CCC(N)=O)NC(=O)[C@H](Cc2cn(C)c3ccccc23)NC1=O) [Compound 85] 8.89

Using known records, supply pKd for Ac-SEYCI[Trp(1-Me)]QDWGEHRC[Sar]EGE-{AEEA-AEEA-K(γGlu-Gly-γGlu-17-carboxy-heptadecanoyl)-NH2} (disulfide 4-14) [Compound 117] 7.62
